The values you see were collected from patent US9113629B2.

Consider the following compounds and their measured pest or weed control at 70 g/ha readings.
# System: Key Broadleaf Weed and Crop Species
# protocol_details: Post-emergent Test II herbicidal activity (Table 5)
# Type: in vivo
# condition_context: post-emergence, 336 h; VIOTR: wild pansy (Viola tricolor); application rate 70 g ai/ha; 14 days after application; read-out: Visual Growth Reduction (%) 14 Days After Application, VIOTR

compound	tested_target	value
COC(=O)c1nc(-c2ccc(I)cc2)cc(N)c1Cl [Compound 158]	Key Broadleaf Weed and Crop Species	0 to 29%

pest or weed control at 70 g/ha reported for this compound COC(=O)c1nc(-c2ccc(C(F)(F)F)c(F)c2)nc(N)c1OC [Compound 26] : 0 to 29%

pest or weed control at 70 g/ha reported for this compound COC(=O)c1nc(-c2ccc(Br)cc2)cc(N)c1Cl [Compound 67] : 0 to 29%
